# experimentalDetails: Terminal half life in rat at 1 mg/kg, iv
# Type: ADME, organism-based
# Design: dose 1 mg/kg, route intravenous
# conditionLabel: in vivo, read-out: beta t1/2 (converted)
propertyMeasured: half-life (min)

>>> print(df.to_string())
                                   compound  val
0  Cc1nc2ccccc2n1C1C[C@H]2CC[C@@H](C1)N2CC[C@H](NC(=O)C1CCSCC1)c1cccc(F)c1 (stereo partly specified)   48

* * *

# experimentalDetails: Lipophilicity, log D of the compound
# Assay type: physicochemical
# conditionLabel: octanol/water
propertyMeasured: logD

                                   molecule  propertymeasured  val
0  Cc1nc2ccccc2n1C1C[C@H]2CC[C@@H](C1)N2CC[C@H](NC(=O)C1CCSCC1)c1cccc(F)c1 (stereo partly drawn)              logD  3.7
1  Cc1nc2ccc(F)cc2n1C1C[C@H]2CC[C@@H](C1)N2CC[C@H](NC(=O)C1CCS(=O)(=O)CC1)c1cccc(F)c1 (stereo partly drawn)              logD  2.9
2  Cc1nc2ccccc2n1C1C[C@H]2CC[C@@H](C1)N2CC[C@H](NC(=O)C1CC[S+]([O-])CC1)c1cccc(F)c1 (stereo partly drawn)              logD  2.3

Recorded values, source ChEMBL document CHEMBL1268988.
